# MEASUREMENT_TARGET: Cellular tumor antigen p53 (Homo sapiens)
# TEST_DETAILS: Primary qHTS for small molecule compounds that upregulate eGFP-tagged delta133p53alpha (in N-terminal) cells. (AID 2060322);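 further: cells pre-induced with doxycycline then dosed without doxycycline; series mostly up to about 56 µM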
# ASSAY_CONDITIONS: NCI-H358 eGFP-delta133p53alpha fluorescence, 24 h; stronger effect = higher value
Records with an inconclusive call do not appear.
Short version: activation at least 10% is YES, less is NO.

| STRUCTURE | MEASUREMENT_TARGET | LABEL |
| --- | --- | --- |
| CC(C)(C)NC(=O)[C@H]1CN(Cc2cccnc2)CCN1C[C@@H](O)C[C@@H](Cc1ccccc1)C(=O)N[C@H]1c2ccccc2C[C@H]1O | Cellular tumor antigen p53 (Homo sapiens) | YES |
| Cc1cc(Nc2cc(N3CCN(C)CC3)nc(Sc3ccc(NC(=O)C4CC4)cc3)n2)n[nH]1 | Cellular tumor antigen p53 (Homo sapiens) | YES |
| O=C1Cc2cc(Cl)ccc2N1 | Cellular tumor antigen p53 (Homo sapiens) | NO |
| Cc1cc(Nc2cc(N3CCN(C)CC3)nc(C=Cc3ccccc3)n2)n[nH]1 | Cellular tumor antigen p53 (Homo sapiens) | YES |
| CCN[C@H]1CN(CCCOC)S(=O)(=O)c2sc(S(N)(=O)=O)cc21 | Cellular tumor antigen p53 (Homo sapiens) | YES |
| CCN(CC)CCOC(=O)C1(c2ccccc2)CCCC1 | Cellular tumor antigen p53 (Homo sapiens) | NO |
